Listing of recorded CC50 by entry.
System: Calu-3
Experiment: Cytotoxicity against human Calu-3 cells assessed as reduction in cell viability
Type: toxicity, cell-based
Settings: calu-3

- moleculeSmiles: "CCC(CC)COC(=O)[C@H](C)N[P@](=O)(OC[C@H]1O[C@@](C#N)(c2ccc3c(N)ncnn23)[C@H](O)[C@@H]1O)Oc1ccccc1"
  CC50: "> 5 µM"
- moleculeSmiles: "C[C@H]1CC[C@H]2C(C)(C)CCC[C@]23Oc2ccc(O)cc2C[C@]13C"
  CC50: "> 10 µM"
- moleculeSmiles: "CC1=C2Cc3cc(ccc3O)C(=O)O[C@H](C(C)(C)Br)CC[C@](C)(O)[C@H](Br)CC[C@]2(C)[C@@H](Br)CC1"
  CC50: "> 10 µM"

====

Assay: Cytotoxicity against human Calu-3 cells assessed as reduction in cell viability
Type: toxicity, cell-based
Details: Calu-3 cells

- moleculeSmiles: "CC(=O)C[C@]1(O)c2ccccc2-[n+]2ccc3c([nH]c4ccccc43)c21.O=C([O-])C(F)(F)F"
  measureUnit: "µM"
  CC50: 5
